Entries and their TGI values follow.
Test system: A549 NSCLC
Assay: NCI tumour cell line growth inhibition, 48 h
readout.kind: TGI

compound	reported.measurement
c1cc(C2N3CCCN2CC3)ccn1 (stereo not given)	> 100 µM
NC(=O)N/N=C1/CCCC/C1=C\c1ccccc1	> 100 µM
O=C(Cc1nc2ccccc2s1)C(=O)Nc1ccc(Cl)cc1Cl	> 100 µM
Oc1cccc2nc3cc(CN4CCOCC4)c(CN4CCOCC4)cc3nc12	> 100 µM
Cc1cc(NS(=O)(=O)c2ccc(NC(=O)c3cccc4c(NNc5ccc(S(N)(=O)=O)cc5)c5ccccc5nc34)cc2)no1	> 100 µM
COC(=O)Nc1nc2ccc(NS(=O)(=O)c3ccc(F)cc3)cc2[nH]1	> 100 µM
Cc1ccc2oc(=O)cc(C3c4ccc([nH]4)C(c4cc(=O)oc5ccc(C)cc45)c4ccc([nH]4)C(c4cc(=O)oc5ccc(C)cc45)c4ccc([nH]4)C(c4cc(=O)oc5ccc(C)cc45)c4ccc3[nH]4)c2c1 (stereo not given)	1.54 µM
CC(=N\N=C\c1ccccn1)/C(C)=N/N=C/c1ccccn1	> 100 µM
CC1CCC(C#N)(NOC2=NCCN2)CC1 (stereo not given)	> 100 µM
CN(C)C(=O)CO/N=C1/C(c2c(O)[nH]c3ccccc23)=Nc2ccccc21	> 100 µM
O=C(O)C1(CC(CCCN2CCCCC2)c2ccccc2)CCCC1 (stereo not given)	> 100 µM
Cc1cc(S(=O)(=O)Nc2nc3ccsc3c(=O)n2Cc2ccccc2)c(S)cc1Cl	> 100 µM
COc1cc(C2c3cc4c(cc3OC(N3CCOCC3)C2C)OCO4)cc(OC)c1OC (stereo not given)	> 69.2 µM
O=C(O)CCc1nc(-c2ccccc2)c(-c2ccccc2)o1	> 100 µM
O=C1c2c(O)cccc2C(C(=O)CCCC(=O)C2c3cccc(O)c3C(=O)c3c(O)cccc32)c2cccc(O)c21	1.64 µM
CN(C)NC(=S)NC12CC3CC(CC(C3)C1)C2	> 100 µM
CC(=O)O[C@@H]1CC2[C@@H](CCC3Cc4nc5c(nc4C[C@@]32C)CC2CC[C@@H]3C(CC[C@@]4(C)C3CC[C@@H]4C(C)CCCC(C)C)[C@@]2(C)C5)C2C[C@@H]3OC4(CCC(C)CO4)C(C)[C@@H]3[C@]21C (stereo not given in full)	> 100 µM
ClC1=C(Cl)C(Cl)=C(Cl)C1=Cc1ccc(Cl)cc1Cl	4.52 µM
O=C(Cc1ccccc1)NN1C(=O)C(Cl)C1c1ccccc1 (stereo not given)	> 100 µM
C/C(CC(=O)Nc1ccc(NC(=O)/C(C)=N/NS(=O)(=O)c2ccc(C)cc2)cc1)=N\NS(=O)(=O)c1ccc(C)cc1	> 100 µM
CCOC(=O)CCc1c(C)c2c(O)cc(O)cc2oc1=O	> 100 µM
CCc1c(-c2coc(CC/C(C)=C/c3ccccc3)n2)oc(OC)c(C)c1=O	> 100 µM
O=c1cc(-c2ccc[nH]2)[nH]c2cc3c(cc12)OCO3	> 100 µM
CCN(CC)CCNc1ccc2nnn3c4ccc(OC(C)=O)cc4c(=O)c1c23	> 40.6 µM
COc1ccc(NCc2c(O)ccc3ccccc23)cc1	> 100 µM
